Catalogue of molecules with associated z-score
Target: NADPH oxidase 2 (Homo sapiens) (UniProt P04839)
Sequence (P04839 whole entry, looked up): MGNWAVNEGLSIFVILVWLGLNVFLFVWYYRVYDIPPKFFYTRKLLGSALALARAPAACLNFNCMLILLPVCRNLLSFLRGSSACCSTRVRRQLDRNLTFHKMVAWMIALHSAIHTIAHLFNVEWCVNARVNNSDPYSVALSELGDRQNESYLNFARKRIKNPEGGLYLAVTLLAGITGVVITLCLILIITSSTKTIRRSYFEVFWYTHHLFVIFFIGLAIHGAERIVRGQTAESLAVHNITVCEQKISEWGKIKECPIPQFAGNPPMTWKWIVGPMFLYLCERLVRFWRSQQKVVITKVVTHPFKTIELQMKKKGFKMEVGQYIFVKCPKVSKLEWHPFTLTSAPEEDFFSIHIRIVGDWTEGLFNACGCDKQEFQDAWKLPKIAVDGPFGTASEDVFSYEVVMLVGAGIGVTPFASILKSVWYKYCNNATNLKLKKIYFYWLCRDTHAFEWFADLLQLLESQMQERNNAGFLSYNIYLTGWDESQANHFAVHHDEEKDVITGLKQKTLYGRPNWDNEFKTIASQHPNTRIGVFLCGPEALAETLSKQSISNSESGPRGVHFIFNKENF
Assay: compounds shifting NOX2 Amplex Red fluorescence – cell-based, HEK293-NOX2, PMA-stimulated, NOX inhibitor project, primary screen (AID 1159); further: test concentration not given here
Settings: 45 min, higher = more signal, called active from +8 up or from −8 down
Answer field: number only, no words.

Some solved entries appear below for comparison.
>  <molecule>
COc1cc2c(cc1O)C=[N+](Cc1sc3ccccc3c1Cl)CC2

>  <z-score>
-3.84

$$$$
>  <molecule>
CCN(CC)c1ccc(N2CC=CC34O[C@@H]5/C=C\CCCOC(=O)C5[C@H]3C(=O)N(C(C)CO)[C@@H]4C2=O)cc1 (stereo partly drawn)

>  <z-score>
0.275

$$$$
>  <molecule>
COC(=O)c1c(CC[C@@H](CO)NC(=O)N2CCC[C@H]2Cn2cc(C3(O)CCCCC3)nn2)oc(C(C)=O)c1C(=O)OC

>  <z-score>
-0.645

$$$$
>  <molecule>
COCC(=C=CC[C@H](O)c1ccccc1OCCO)C[C@H](O)c1ccccn1

>  <z-score>
0.251

$$$$
>  <molecule>
Cc1cc(C)c(C(O)C2C=CC3C(=O)N(c4ccccc4)C(=O)C3N2Nc2ccccc2F)c(C)c1 (stereo not drawn)

>  <z-score>
-0.611

$$$$
>  <molecule>
CCCC=C(CCC)[C@@H](NP(=O)(c1ccccc1)c1ccccc1)c1ccc(-c2ccccc2)cc1

>  <z-score>
-1.02

$$$$

Q: // z-score lookup, key: COC(=O)[C@@]1(Cc2ccc(OC)cc2)[C@H]2c3cc(C(=O)N4CCCC4)n(CCc4c[nH]c5ccc(O)cc45)c3C[C@H]2CN1C(=O)c1ccccc1
Result: -0.648

Q: Please do the same for C=C(COC)/C(=C/C[C@H](OC(=O)c1ccncc1)c1ccc(CO)o1)c1cnc2ccccc2c1 as well.
Result: 1.13
